# protocol_text: UV absorption spectroscopic data (λmax, ε, E 1%/1 cm) of the merocyanine UV absorbers
# Format: physicochemical
# particulars: Table MC1; in MeOH
# λmax [nm] per entry

| molecule | λmax [nm] |
| --- | --- |
| CCOC(=O)/C(=C1\C=C(NC(C)CC)CCC1)C(OC)(C(=O)OCC)/C(C(=O)OCC)=C1/C=C(NC(C)CC)CCC1 (stereo not drawn) | 375 (MeOH) nm |
| CCOC(=O)/C(=C1\C=C(NCCNC2=C/C(=C(\C(=O)OCC)S(=O)(=O)c3ccccc3)CCC2)CCC1)S(=O)(=O)c1ccccc1 | 362 (MeOH) nm |
| CCCCC(CC)COC(=O)/C(C#N)=C1/C=C(NCCNC2=C/C(=C(\C#N)C(=O)OCC(CC)CCCC)CC(C)(C)C2)CC(C)(C)C1 (stereo not drawn) | 362 (MeOH) nm |
| CC1(C)CC(NC2CCCCC2NC2=CC(=C(C#N)C#N)CC(C)(C)C2)=CC(=C(C#N)C#N)C1 (stereo not drawn) | 383 (MeOH) nm |
| CC1(C)CC(NCCCOCCOCCNC2=CC(=C3C(=O)OC(C)(C)OC3=O)CC(C)(C)C2)=CC(=C2C(=O)OC(C)(C)OC2=O)C1 | 380 (MeOH) nm |
| CCOC(=O)C(C(=O)OCC)=C1C=C(NCCCCCCNC2=CC(=C(C(=O)OCC)C(=O)OCC)CCC2)CCC1 | 373 (MeOH) nm |
| CCOC(=O)/C(C#N)=C1\C=C(NC2CCCCC2NC2=C/C(=C(/C#N)C(=O)OCC)CC(C)(C)C2)CC(C)(C)C1 (stereo not drawn) | 370 (MeOH) nm |
| CCOC(=O)/C(C#N)=C1\C=C(NCCCCCCNC2=C/C(=C(/C#N)C(=O)OCC)CCC2)CCC1 | 384 (MeOH) nm |
| CCCCC(CC)(CCCNC1=C/C(=C(/C(=O)OCC)C(=O)c2ccc(OC)cc2)CCC1)CNC1=C/C(=C(/C(=O)OCC)C(=O)c2ccc(OCC)cc2)CCC1 (stereo not drawn) | 373 (MeOH) nm |

====

# protocol_text: UV absorption spectroscopic data (λmax, ε, E 1%/1 cm) of the merocyanine UV absorbers
# Format: physicochemical
# particulars: Table MC1; in MeOH
quantity_name: λmax [nm]

| compound | reported |
| --- | --- |
| CCCCCCN(C=CC=C(C(C)=O)S(=O)(=O)c1ccc(C)cc1)CC [MC36] | 385 (MeOH) nm |
| CCOC(=O)C(C(=O)OCC)=C1C=C(NCCNC2=CC(=C(C(=O)OCC)C(=O)OCC)CC(C)(C)C2)CC(C)(C)C1 [MC03] | 372 (MeOH) nm |
| CCCCC(CC)COC(=O)/C(=C1\C=C(NCCCNC2=C/C(=C(\C(=O)OCC(CC)CCCC)S(=O)(=O)c3ccccc3)CCC2)CCC1)S(=O)(=O)c1ccccc1 (stereo not shown) [MC17] | 385 (MeOH) nm |
| COc1cc(OC(=O)/C(C(C)=O)=C2/C=C(NCC(C)NC3=C/C(=C(\C(C)=O)C(=O)Oc4cc(OC)c(OC)c(OC)c4)CC(C)(C)C3)CC(C)(C)C2)cc(OC)c1OC (stereo not shown) [MC22] | 395 (MeOH) nm |
| CCOC(=O)/C(C#N)=C1\C=C(NC2CC(C)(C)CC(C)(CNC3=C/C(=C(\C#N)C(=O)OCC)CC(C)(C)C3)C2)CC(C)(C)C1 (stereo not shown) [MC24] | 388 (MeOH) nm |
| CCOC(=O)C(C(=O)OCC)=C1C=C(N2CCN(C3=CC(=C(C(=O)OCC)C(=O)OCC)CC(C)(C)C3)CC2)CC(C)(C)C1 [MC08] | 373 (MeOH) nm |
| CC(=O)/C(C(=O)Nc1ccc(NC(=O)/C(C(C)=O)=C2/C=C(N3CCCC3)CC(C)(C)C2)cc1)=C1\C=C(N2CCCC2)CC(C)(C)C1 [MC31] | 394 (MeOH) nm |
| COCCOC(=O)/C(C(C)=O)=C1/C=C(NCCC(C)(C)CC(C)CNC2=C/C(=C(\C(C)=O)C(=O)OCCOC)CC(C)C2)CC(C)C1 (stereo not shown) [MC29] | 383 (MeOH) nm |
| CCOC(=O)C(C(=O)OCC)=C1C=C(NC2CCCCC2NC2=CC(=C(C(=O)OCC)C(=O)OCC)CC(C)(C)C2)CC(C)(C)C1 (stereo not shown) [MC10] | 362 (MeOH) nm |
| CCOC(=O)C(C(=O)OCC)=C1C=C(NCC2(C)CC(NC3=CC(=C(C(=O)OCC)C(=O)OCC)CC(C)(C)C3)CC(C)(C)C2)CC(C)(C)C1 (stereo not shown) [MC25] | 395 (MeOH) nm |
| CCOC(=O)/C(C#N)=C1\C=C(NCCN(CCNC2=C/C(=C(/C#N)C(=O)OCC)CC(C)(C)C2)CCNC2=C/C(=C(\C#N)C(=O)OCC)CC(C)(C)C2)CC(C)(C)C1 [MC11] | 375 (MeOH) nm |
| COC(=O)C(C(=O)OC)=C1C=C(NC2CCCCC2NC2=CC(=C(C(=O)OC)C(=O)OC)CCC2)CCC1 (stereo not shown) [MC35] | 374 (MeOH) nm |
| CCCCC(CC)CNC(=O)/C(C#N)=C1/C=C(N2CCN(C3=C/C(=C(\C#N)C(=O)NCC(CC)CCCC)CC(C)(C)C3)C(C)C2)CC(C)(C)C1 (stereo not shown) [MC26] | 374 (MeOH) nm |

====

# protocol_text: UV absorption spectroscopic data (λmax, ε, E 1%/1 cm) of the merocyanine UV absorbers
# Format: physicochemical
# particulars: Table MC3; at λmax
param class (str): category from ε; see ranges c1 (below 50000 L/mol/cm), c2 (50000 L/mol/cm to below 70000 L/mol/cm), c3 (70000 L/mol/cm or more)

| compound | classification |
| --- | --- |
| CCCCC(CC)COC(=O)C(C#N)=CC=CN(CC)CC (stereo not drawn) [MC39] | c2 |
| CCCCC(CC)COC(=O)/C(C#N)=C\C=C\N(CC)CCCN(/C=C/C=C(/C#N)C(=O)OCC(CC)CCCC)CC (stereo not drawn) [MC173] | c3 |
| COC(=O)C(=C/C=C/N1CCOCC1)C(=O)OC [MC178] | c1 |
| COC(=O)C(=C/C=C/N(C(C)C)C(C)C)C(=O)OC [MC180] | c2 |
| CCCCN(/C=C/C=C(C(=O)OCC)C(=O)OCC)CCCC [MC182] | c2 |
| COC(=O)C(=C/C=C/N(C)C)C(=O)OC [MC177] | c2 |
| CCCCC(CC)COC(=O)/C(C#N)=C\C=C\N(CC)CCCCN(/C=C/C=C(/C#N)C(=O)OCC(CC)CCCC)CC (stereo not drawn) [MC183] | c3 |
| CCOC(=O)C(=C/C=C/N1CCOCC1)C(=O)OCC [MC181] | c1 |
| CCCCCCCCOC(=O)/C(=C\C=C\N(CC)CC)S(=O)(=O)c1ccccc1 [MC172] | c3 |

====

Listing: λmax of selected compounds
# protocol_text: UV absorption spectroscopic data (λmax, ε, E 1%/1 cm) of the merocyanine UV absorbers
# Assay type: physicochemical
# Design: unit not given beside the values
# particulars: Table MC3; solvent not given

| compound | λmax |
| --- | --- |
| CCCCCCCCOC(=O)/C(=C\C=C\N(CC)CC)S(=O)(=O)c1ccccc1 [MC172] | 371 |
| CCCCC(CC)COC(=O)/C(C#N)=C\C=C\N(CC)CCCN(/C=C/C=C(/C#N)C(=O)OCC(CC)CCCC)CC (stereo not drawn) [MC173] | 390 |
| CN(C)/C=C/C=C1C(=O)OC(C)(C)OC1=O [MC175] | 383 |
| COC(=O)C(=C/C=C/N(C(C)C)C(C)C)C(=O)OC [MC180] | 378 |
| CCCCN(/C=C/C=C(C(=O)OCC)C(=O)OCC)CCCC [MC182] | 377 |
| COC(=O)C(=C/C=C/N1CCCCC1)C(=O)OC [MC179] | 377 |
| CCOC(=O)C(=C/C=C/N1CCOCC1)C(=O)OCC [MC181] | 371 |
| CCCCC(CC)COC(=O)C(C#N)=CC=CN(CC)CC (stereo not drawn) [MC39] | 380 |
| CCCCC(CC)COC(=O)/C(C#N)=C/C=C/N1CCN(/C=C/C=C(\C#N)C(=O)OCC(CC)CCCC)CC1 (stereo not drawn) [MC174] | 398 |
| CCCCC(CC)COC(=O)/C(C#N)=C\C=C\N(CC)CCCCN(/C=C/C=C(/C#N)C(=O)OCC(CC)CCCC)CC (stereo not drawn) [MC183] | 386 |
| COC(=O)C(=C/C=C/N1CCOCC1)C(=O)OC [MC178] | 373 |
| COC(=O)C(=C/C=C/N(C)C)C(=O)OC [MC177] | 373 |

Every entry's value here was drawn from patent US7407648B2.
